- measured-on: human Edg-1 receptor (Homo sapiens)
- Construct: expressed in transfected cells; membrane preparation
- Sequence (P21453 whole entry): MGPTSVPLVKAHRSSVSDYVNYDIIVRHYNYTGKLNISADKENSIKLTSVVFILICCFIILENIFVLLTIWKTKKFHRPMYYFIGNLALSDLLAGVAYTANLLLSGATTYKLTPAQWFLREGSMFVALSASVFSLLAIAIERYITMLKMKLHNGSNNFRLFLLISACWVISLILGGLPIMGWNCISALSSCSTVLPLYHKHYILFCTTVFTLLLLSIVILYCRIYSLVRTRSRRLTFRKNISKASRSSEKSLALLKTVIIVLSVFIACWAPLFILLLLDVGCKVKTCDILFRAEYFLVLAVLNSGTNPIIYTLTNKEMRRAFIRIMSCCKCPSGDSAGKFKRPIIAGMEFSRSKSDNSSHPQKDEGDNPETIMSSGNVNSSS
- protocol-details: GTP-γ-S assay using human Edg-1 receptors (scintillation proximity assay, membrane preparation from CHO Flp-In cell line)
- Assay type: biochemical
- condition-context: example compound at 10 μM; relative to 10 μM S1P; GTP-γ-S SPA, human Edg-1 membranes
property-name: % Activation (Edg-1 receptor activation in percent of the activation by 10 μM S1P)

molecule: CCCOc1nc(Cc2ccccc2)nc2oc(-c3cccc(O)c3)nc12
assay-result: 96%
--
molecule: CCCOc1nc(CN2CCCOCC2)nc2oc(-c3c(F)ccc(F)c3F)nc12
assay-result: 120%
--
molecule: CCCOc1nc(C(C)c2ccccc2)nc2oc(-c3cccc(F)c3)nc12 (centres unmarked)
assay-result: 97%
--
molecule: Fc1cccc(-c2nc3c(OC4CCCC4)nc(Cc4ccc(Cl)cc4)nc3o2)c1
assay-result: 66%
--
molecule: CCCOc1nc(Cc2ccc(Cl)cc2)nc2oc(-c3ccc(OC)c(C)c3)nc12
assay-result: 94%
--
molecule: CCOc1nc(Cc2ccc(Cl)cc2)nc2oc(-c3cc(C)c(OCC4(CO)COC4)c(C)c3)nc12
assay-result: 97%
--
molecule: CCCOc1nc(Cc2ccc(Cl)cc2)nc2oc(-c3cc(C)c(OCC(O)CNC(=O)CO)c(C)c3)nc12 (centres unmarked)
assay-result: 78%
--
molecule: CCCOc1nc(Cn2ccnc2C)nc2oc(-c3cccc(F)c3)nc12
assay-result: 81%
